For each record, write down the corresponding Activity.
TARGET OF ASSAY: Amyloid-beta precursor protein (Homo sapiens) (UniProt P05067)
Sequence (P05067 whole entry): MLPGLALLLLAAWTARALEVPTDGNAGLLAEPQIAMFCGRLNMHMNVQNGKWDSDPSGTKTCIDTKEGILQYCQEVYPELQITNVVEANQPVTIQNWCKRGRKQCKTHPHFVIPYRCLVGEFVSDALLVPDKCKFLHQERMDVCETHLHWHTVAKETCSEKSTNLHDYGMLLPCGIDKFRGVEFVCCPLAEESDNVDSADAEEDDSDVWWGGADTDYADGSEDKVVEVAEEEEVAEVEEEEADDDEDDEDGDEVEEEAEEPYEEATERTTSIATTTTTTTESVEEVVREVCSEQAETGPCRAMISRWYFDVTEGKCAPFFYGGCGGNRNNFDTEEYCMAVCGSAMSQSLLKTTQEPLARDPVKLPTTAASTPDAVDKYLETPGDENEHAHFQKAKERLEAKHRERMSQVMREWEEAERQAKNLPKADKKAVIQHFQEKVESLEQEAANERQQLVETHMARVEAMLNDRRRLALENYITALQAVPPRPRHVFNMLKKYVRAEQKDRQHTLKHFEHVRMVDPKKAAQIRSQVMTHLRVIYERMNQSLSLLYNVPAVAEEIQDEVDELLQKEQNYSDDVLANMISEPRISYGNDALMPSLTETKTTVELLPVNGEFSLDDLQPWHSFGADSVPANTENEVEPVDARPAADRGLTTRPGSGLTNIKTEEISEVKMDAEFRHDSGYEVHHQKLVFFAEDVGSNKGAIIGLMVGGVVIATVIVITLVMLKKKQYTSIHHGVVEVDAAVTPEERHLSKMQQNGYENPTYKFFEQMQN
TEST DETAILS: Inhibition of preformed self-induced amyloid beta (1 to 40) (unknown origin) fibril aggregation assessed as remaining fibril aggregates at 100 uM after 4 days at pH 6.60 by thioflavin-T fluorescence assay
Kindly answer with a numeric value in %, unit omitted.

// returns Activity for Oc1ccc(/N=C/c2c(O)ccc3ccccc23)c(O)c1 with Amyloid-beta precursor protein (Homo sapiens) (UniProt P05067); value = 14.4

// returns Activity for Oc1ccc(CNc2ccccc2O)cc1O with Amyloid-beta precursor protein (Homo sapiens) (UniProt P05067); value = 12.8

// returns Activity for Oc1ccc(CNc2ccccc2O)cc1 with Amyloid-beta precursor protein (Homo sapiens) (UniProt P05067); value = 8.37

// returns Activity for Oc1c(I)cc(Cl)c2cccnc12 [CLIOQUINOL] with Amyloid-beta precursor protein (Homo sapiens) (UniProt P05067); value = 170

// returns Activity for Oc1cccc(CNc2ccccc2O)c1 with Amyloid-beta precursor protein (Homo sapiens) (UniProt P05067); value = 11.7

// returns Activity for Oc1ccccc1/N=C/c1c(O)ccc2ccccc12 with Amyloid-beta precursor protein (Homo sapiens) (UniProt P05067); value = 36.2

// returns Activity for Oc1ccc(/C=C/c2cc(O)cc(O)c2)cc1 [RESVERATROL] with Amyloid-beta precursor protein (Homo sapiens) (UniProt P05067); value = 100

* * *

TEST DETAILS: Inhibition of Cu2+-induced amyloid beta (1 to 40) fibril aggregation assessed as remaining fibril aggregates at 100 uM preincubated for 5 mins followed by amyloid beta (1 to 40) addition measured after 7 days at pH 6.60 by thioflavin-T fluorescence assay
VALUE KIND: Activity

For this compound ( Oc1cccc(CNc2ccccc2O)c1 ), measured Activity is 17.2%

For this compound ( Oc1ccc(CNc2ccccc2O)cc1 ), measured Activity is 11%

For this compound ( Oc1c(I)cc(Cl)c2cccnc12 ), measured Activity is 196%

For this compound ( Oc1ccccc1/N=C/c1c(O)ccc2ccccc12 ), measured Activity is 33.7%

For this compound ( Oc1ccc(/C=C/c2cc(O)cc(O)c2)cc1 ), measured Activity is 16.1%

For this compound ( Oc1ccc(/N=C/c2c(O)ccc3ccccc23)c(O)c1 ), measured Activity is 10.9%

For this compound ( Oc1ccc(CNc2ccccc2O)cc1O ), measured Activity is 12.1%

* * *

TEST DETAILS: Antioxidant activity assessed as DPPH free radical scavenging activity after 30 mins by spectrophotometry
Format: physicochemical
For each record, write down the corresponding log10 IC50.
Base-10 log of IC50, unit µM.

For this compound ( Oc1cccc(CNc2ccccc2O)c1 ), measured log10 IC50 is 0.77

For this compound ( Oc1ccc(CNc2ccccc2O)cc1 ), measured log10 IC50 is 0.80

For this compound ( Oc1ccc(/C=C/c2cc(O)cc(O)c2)cc1 ), measured log10 IC50 is 1.25

For this compound ( O=C1O[C@H]([C@@H](O)CO)C(O)=C1O ), measured log10 IC50 is 1.11

For this compound ( Oc1c(I)cc(Cl)c2cccnc12 ), measured log10 IC50 is 1.61

For this compound ( Oc1ccc(CNc2ccccc2O)cc1O ), measured log10 IC50 is 0.48

For this compound ( Oc1ccccc1/N=C/c1c(O)ccc2ccccc12 ), measured log10 IC50 is 1.59

For this compound ( Oc1ccc(/N=C/c2c(O)ccc3ccccc23)c(O)c1 ), measured log10 IC50 is 1.13

* * *

TEST DETAILS: Ratio of resveratrol IC50 to compound IC50 for AAPH radical scavenging activity
For each record, write down the corresponding Ratio IC50.
Reply with just the number.

For this compound ( Oc1cccc(CNc2ccccc2O)c1 ), measured Ratio IC50 is 1.4

For this compound ( Oc1ccc(/N=C/c2c(O)ccc3ccccc23)c(O)c1 ), measured Ratio IC50 is 0.5

For this compound ( O=C1O[C@H]([C@@H](O)CO)C(O)=C1O ), measured Ratio IC50 is 0.02

For this compound ( Oc1c(I)cc(Cl)c2cccnc12 ), measured Ratio IC50 is 0.2

For this compound ( Oc1ccc(CNc2ccccc2O)cc1 ), measured Ratio IC50 is 1.2

For this compound ( Oc1ccc(CNc2ccccc2O)cc1O ), measured Ratio IC50 is 2.8

For this compound ( Oc1ccccc1/N=C/c1c(O)ccc2ccccc12 ), measured Ratio IC50 is 0.1

* * *

TEST DETAILS: Inhibition of preformed Cu2+-induced amyloid beta (1 to 40) fibril aggregation assessed as remaining fibril aggregates at 100 uM after 12 days at pH 6.60 by thioflavin-T fluorescence assay
For each record, write down the corresponding Activity.
Answer as a quantity: numeral, then unit.

For this molecule ( Oc1ccc(/N=C/c2c(O)ccc3ccccc23)c(O)c1 ), measured Activity is 47.3%

For this molecule ( Oc1cccc(CNc2ccccc2O)c1 ), measured Activity is 117%

For this molecule ( Oc1ccc(CNc2ccccc2O)cc1O ), measured Activity is 69.7%

For this molecule ( Oc1ccccc1/N=C/c1c(O)ccc2ccccc12 ), measured Activity is 42.8%

For this molecule ( Oc1ccc(CNc2ccccc2O)cc1 ), measured Activity is 106%

For this molecule ( Oc1ccc(/C=C/c2cc(O)cc(O)c2)cc1 ), measured Activity is 144%

* * *

TARGET OF ASSAY: UniProt:P05067
TEST DETAILS: Inhibition of self-induced amyloid beta (1 to 40) (unknown origin) fibril aggregation assessed as remaining fibril aggregates at 100 uM after 3 days at pH 6.60 by thioflavin-T fluorescence assay
VALUE KIND: Activity (%)
Kindly answer with a numeric value in %, unit omitted.

For this molecule ( Oc1ccccc1/N=C/c1c(O)ccc2ccccc12 ), measured Activity is 22.6

For this molecule ( Oc1ccc(CNc2ccccc2O)cc1 ), measured Activity is 4.34

For this molecule ( Oc1c(I)cc(Cl)c2cccnc12 ), measured Activity is 120

For this molecule ( Oc1ccc(/C=C/c2cc(O)cc(O)c2)cc1 ), measured Activity is 7.48

For this molecule ( Oc1cccc(CNc2ccccc2O)c1 ), measured Activity is 8.2

For this molecule ( Oc1ccc(CNc2ccccc2O)cc1O ), measured Activity is 9.17

For this molecule ( Oc1ccc(/N=C/c2c(O)ccc3ccccc23)c(O)c1 ), measured Activity is 6.51

* * *

TEST DETAILS: Inhibition of Cu2+-induced amyloid beta (1 to 40) fibril aggregation assessed as remaining fibril aggregates at 100 uM preincubated for 5 mins followed by amyloid beta (1 to 40) addition measured after 3 days at pH 6.60 by thioflavin-T fluorescence assay
Label 0.0 if Activity falls below 20%; label 1.0 in every other case.

INPUT: Test whether the molecule Oc1ccc(CNc2ccccc2O)cc1 records Activity of 20% or higher.
OUTPUT: 1.0

INPUT: Test whether the molecule Oc1ccc(/C=C/c2cc(O)cc(O)c2)cc1 records Activity of 20% or higher.
OUTPUT: 1.0

INPUT: Test whether the molecule Oc1cccc(CNc2ccccc2O)c1 records Activity of 20% or higher.
OUTPUT: 1.0

INPUT: Test whether the molecule Oc1ccc(/N=C/c2c(O)ccc3ccccc23)c(O)c1 records Activity of 20% or higher.
OUTPUT: 0.0

INPUT: Test whether the molecule Oc1c(I)cc(Cl)c2cccnc12 records Activity of 20% or higher.
OUTPUT: 1.0

INPUT: Test whether the molecule Oc1ccccc1/N=C/c1c(O)ccc2ccccc12 records Activity of 20% or higher.
OUTPUT: 1.0

* * *

TEST DETAILS: Inhibition of Cu2+-amyloid beta (1 to 40) catalyzed generation of hydroxyl radical assessed as 7-hrdroxy-CCA formation at 2 equiv preincubated for 1 hr followed by CCA addition measured over 60 mins by fluorescence assay
VALUE KIND: inhibition (%)
Kindly answer with a numeric value in %, unit omitted.

For this compound ( Oc1ccccc1/N=C/c1c(O)ccc2ccccc12 ), measured inhibition is 100

For this compound ( Oc1cccc(CNc2ccccc2O)c1 ), measured inhibition is 51.1

For this compound ( Oc1ccc(CNc2ccccc2O)cc1O ), measured inhibition is 59.9

For this compound ( Oc1ccc(CNc2ccccc2O)cc1 ), measured inhibition is 47.3

For this compound ( Oc1c(I)cc(Cl)c2cccnc12 ), measured inhibition is 87.7

For this compound ( Oc1ccc(/C=C/c2cc(O)cc(O)c2)cc1 ), measured inhibition is 9

For this compound ( Oc1ccc(/N=C/c2c(O)ccc3ccccc23)c(O)c1 ), measured inhibition is 98.5

* * *

TEST DETAILS: Toxicity in Tetrahymena thermophila assessed as reduction in cell viability after 48 hrs by MTT assay
Format: organism-based
CONDITION DETAILS: Tetrahymena thermophila cells, read-out: LD50
Friendly reminder: LC50 at 48 h below 200 µM is label 1, at or above is label 0.

INPUT: Would you kindly verify if LC50 at 48 h of Oc1cccc(CNc2ccccc2O)c1 is strictly less than 200 µM?
OUTPUT: label 1

INPUT: Would you kindly verify if LC50 at 48 h of Oc1ccccc1/N=C/c1c(O)ccc2ccccc12 is strictly less than 200 µM?
OUTPUT: label 1

INPUT: Would you kindly verify if LC50 at 48 h of Oc1ccc(/N=C/c2c(O)ccc3ccccc23)c(O)c1 is strictly less than 200 µM?
OUTPUT: label 0

INPUT: Would you kindly verify if LC50 at 48 h of Oc1ccc(CNc2ccccc2O)cc1 is strictly less than 200 µM?
OUTPUT: label 0

INPUT: Would you kindly verify if LC50 at 48 h of Oc1c(I)cc(Cl)c2cccnc12 is strictly less than 200 µM?
OUTPUT: label 0

INPUT: Would you kindly verify if LC50 at 48 h of Oc1ccc(/C=C/c2cc(O)cc(O)c2)cc1 is strictly less than 200 µM?
OUTPUT: label 0

INPUT: Would you kindly verify if LC50 at 48 h of Oc1ccc(CNc2ccccc2O)cc1O is strictly less than 200 µM?
OUTPUT: label 0
